Examples of compounds with documented pIC50 follow.
# assayed-system: JAK2 (Homo sapiens (Human), UniProt O60674)
# Sequence (O60674 849-1124): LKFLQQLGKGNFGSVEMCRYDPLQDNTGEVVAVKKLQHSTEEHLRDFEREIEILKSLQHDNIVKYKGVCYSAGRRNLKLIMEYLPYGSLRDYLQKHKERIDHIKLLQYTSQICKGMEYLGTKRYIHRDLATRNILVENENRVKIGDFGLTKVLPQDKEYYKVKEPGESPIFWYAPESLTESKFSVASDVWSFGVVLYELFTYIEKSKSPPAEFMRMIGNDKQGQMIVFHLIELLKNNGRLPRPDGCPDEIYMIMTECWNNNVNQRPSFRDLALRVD
# test-description: Purified kinase assay (Z'-LYTE), JAK2
# Assay type: biochemical
# setup-conditions: Table 1; read-out: JAK2 IC50
pIC50: −log10 of the molar value.

compound	pIC50
CN(C)C(=O)C1CCN(c2ccc(Nc3cc(NCc4ccccc4F)c(C(N)=O)nn3)cc2)CC1 [Compound 86]	6.00 to 7.00
Cc1cc(Nc2cc(NCc3cccc(F)c3)c(C(N)=O)nn2)ccc1C(=O)N(C)C [Compound 60]	6.00 to 7.00
CC(=O)N1CCN(c2ccc(Nc3cc(NCC(C)C)c(C(N)=O)nn3)cc2)CC1 [Compound 14]	6.00 to 7.00
NC(=O)c1nnc(Nc2ccc(N3CCS(=O)(=O)CC3)cc2)cc1NCc1cccc(F)c1 [Compound 94]	6.00 to 7.00
CC(=O)N1CCN(c2ccc(Nc3cc(NCc4cccc(F)c4)c(C(N)=O)nn3)cn2)CC1 [Compound 49]	< 6.00
CN(C)C(=O)Cn1cc(Nc2cc(NCc3cccc4ccsc34)c(C(N)=O)nn2)cn1 [Compound 131]	6.00 to 7.00
N#Cc1ccc(N2CCC(Nc3cc(Nc4cnccn4)nnc3C(N)=O)CC2)nc1 [Compound 97]	8.00 to 9.00
NC(=O)c1nnc(Nc2ccc(N3CCOCC3)cc2)cc1NCc1cccc(F)c1F [Compound 38]	6.00 to 7.00

Just so you know, measured pIC50 for CS(=O)(=O)Cc1ccc(Nc2cc(NCc3cccc(-c4ccncc4)c3)c(C(N)=O)nn2)cc1 [Compound 132] came out at < 6.00

Just so you know, measured pIC50 for CC(=O)N1CCN(c2ccc(Nc3cc(NCc4ccccc4C)c(C(N)=O)nn3)cc2)CC1 [Compound 23] came out at 6.00 to 7.00

Just so you know, measured pIC50 for NC(=O)c1nnc(Nc2cnccn2)cc1NCc1cccc(-n2ccnc2)c1 [Compound 111] came out at < 6.00

Just so you know, measured pIC50 for NC(=O)c1nnc(Nc2ccc(C(=O)N3CCCC3)cc2)cc1NCc1cc(F)cc(F)c1 [Compound 82] came out at 6.00 to 7.00

Just so you know, measured pIC50 for CC(=O)N1CCN(c2ccc(Nc3cc(NCc4ccc(Cl)s4)c(C(N)=O)nn3)cc2)CC1 [Compound 76] came out at < 6.00

Just so you know, measured pIC50 for CC(=O)N1CCC(Cn2cc(Nc3cc(NCc4cccc(F)c4)c(C(N)=O)nn3)cn2)CC1 [Compound 127] came out at 6.00 to 7.00

Just so you know, measured pIC50 for CN(C(=O)C1CC1)c1ccc(Nc2cc(NCc3cccc(F)c3F)c(C(N)=O)nn2)cc1 [Compound 44] came out at < 6.00

Just so you know, measured pIC50 for CCC(=O)N1CCC(c2ccc(Nc3cc(NCc4ccccc4F)c(C(N)=O)nn3)cc2)CC1 [Compound 25] came out at < 6.00

###

# assayed-system: JAK2 (Homo sapiens (Human), UniProt O60674)
# test-description: Purified kinase assay (Z'-LYTE), JAK2
# Type: biochemical
# setup-conditions: Table 1; read-out: JAK2 IC50
Examples of compounds with documented IC50 follow.

Just so you know, measured IC50 for NC(=O)c1nnc(Nc2ccc(C(=O)N3CCCC3)cc2)cc1NCc1cccc(F)c1 came out at 100 to 1000 nM

Just so you know, measured IC50 for NC(=O)c1nnc(Nc2ccc(N3CCNCC3)cc2)cc1NC1CCCC1 came out at 100 to 1000 nM

Just so you know, measured IC50 for CS(=O)(=O)Cc1ccc(Nc2cc(NC3CCN(c4ccc(C#N)cn4)CC3)c(C(N)=O)nn2)cc1 came out at 10 to 100 nM

Just so you know, measured IC50 for NC(=O)c1nnc(Nc2ccc3c(c2)CS(=O)(=O)C3)cc1NCc1cccc(F)c1 came out at 100 to 1000 nM

Just so you know, measured IC50 for CC(=O)N1CCN(c2ccc(Nc3cc(NCc4cc(-n5ccnc5)ccc4F)c(C(N)=O)nn3)cc2)CC1 came out at 100 to 1000 nM

Just so you know, measured IC50 for CCC(=O)N1CCN(c2ccc(Nc3cc(NCc4cc(F)ccc4F)c(C(N)=O)nn3)cc2)CC1 came out at 10 to 100 nM

Just so you know, measured IC50 for CC(=O)N1CCN(c2ccc(Nc3cc(NCc4cccc(-c5ccncc5)c4)c(C(N)=O)nn3)cc2)CC1 came out at > 1000 nM

Just so you know, measured IC50 for NC(=O)c1nnc(Nc2cnn(C3CCCC3)c2)cc1NCc1cccc(F)c1F came out at 100 to 1000 nM

Just so you know, measured IC50 for CC(=O)N1CCN(c2ccc(Nc3cc(NCc4ccccc4)c(C(N)=O)nn3)cc2)CC1 came out at 100 to 1000 nM

Just so you know, measured IC50 for NC(=O)c1nnc(Nc2ccc(N3CCNCC3)cc2)cc1NC1CCCCC1 came out at 100 to 1000 nM

Just so you know, measured IC50 for CC(=O)N1CCN(c2ccc(Nc3cc(NCc4cccc5ccsc45)c(C(N)=O)nn3)cc2)CC1 came out at 10 to 100 nM

Just so you know, measured IC50 for NC(=O)c1nnc(Nc2ccc(C(=O)N3CCCC3)c(Cl)c2)cc1NCc1cccc(F)c1 came out at 100 to 1000 nM
